Octet response overview
assayTarget: T1, HA peptide (Octet assay of PS621 variants)
T1 construct: XAKLDEESILKQK with X = H
T1 peptide: HAKLDEESILKQK
methodSummary: Octet (BLI), 30 C
// print number alone

Answered examples (8):
| binder | testReadout | numericReadout |
| --- | --- | --- |
| PS1102 (designed binder, Variant of PS621) MHSKFSHAGRICGAKFKVGEPIYRCKECQFDDTCVLCVNCFNPKDHTGHHVYTTICTEFNNGICDCGDKEAWNHTLFCKAEEG | Octet response | 2.5 |
| PS1108 (designed binder, Variant of PS621) MHSKFSHAGRICGAKFKVGEPIYRCKECSFDDTCVLCVNCFNPKDHTGHHVYTTICTERNNGICDCGDKEAWNHTLFCKAEEG | Octet response | 1.2 |
| PS1106 (designed binder, Variant of PS621) MHSKFSHAGRICGAKFKVGEPIYRCKECSFDDTCVLCVNCFNPKDHTGHHVYVTICTEFNNGICDCGDKEAWNHTLFCKAEEG | Octet response | 0.6 |
| PS1105 (designed binder, Variant of PS621) MHSKFSHAGRICGAKFKVGEPIYRCKECSFDDTCVLCVNCFNPKDHTRHHVYTTICTEFNNGICDCGDKEAWNHTLFCKAEEG | Octet response | 0.2 |
| PS1104 (designed binder, Variant of PS621) MHSKFSHAGRICGAKFKVGEPIYRCKECSFDDTCVLCVNCFNPKDHRGHHVYTTICTEFNNGICDCGDKEAWNHTLFCKAEEG | Octet response | 3.4 |
| PS1121 (designed binder, Variant of PS621) MHSKFSHAGRICGAKFKVGEPIYRCKECSFDDTCVLCVNCFNPKDHKGHHVYTTICTEFNNGICDCGDKEAWNHTLFCKAEEG | Octet response | 2.2 |
| PS1109 (designed binder, Variant of PS621) MHSKFSHAGRICGAKFKVGEPIYRCKECSFDDTCVLCVNCFNPKDHTGHHVYTTICTEFNKGICDCGDKEAWNHTLFCKAEEG | Octet response | 0.6 |
| PS1122 (designed binder, Variant of PS621 (T47L, I63E, E70T)) MHSKFSHAGRICGAKFKVGEPIYRCKECSFDDTCVLCVNCFNPKDHLGHHVYTTICTEFNNGECDCGDKTAWNHTLFCKAEEG | Octet response | 1.3 |

Task: Give recorded Octet response. PS1110 (designed binder, Variant of PS621) MHSKFSHAGRICGAKFKVGEPIYRCKECSFDDTCVLCVNCFNPKDHTGHHVYTTICTEFNNGECDCGDKEAWNHTLFCKAEEG
Result: 2.4

Task: Give Octet response for PS1107 (designed binder, Variant of PS621) MHSKFSHAGRICGAKFKVGEPIYRCKECSFDDTCVLCVNCFNPKDHTGHHVYTTICREFNNGICDCGDKEAWNHTLFCKAEEG
Result: 0.6
